Let's look at some molecules and their measured fold change of Cadaverine concentration.
Test system: Klebsiella aerogenes DSM 30053
METHOD NOTES: fold change of Cadaverine concentration vs plate DMSO controls (fold change (ratio)); higher = more amine produced, active = hit call of the paper (significant change in both replicates, either direction)
CONDITION: incubation time: 27 h, anaerobic, 37 °C
Where a name gives a salt, the structure may show the parent alone.

{"MOLECULE": "C[C@]12C=CC(=O)C=C1CC[C@H]1[C@@H]3C[C@@H](O)[C@](O)(C(=O)CO)[C@@]3(C)C[C@H](O)[C@@]12F [Triamcinolone] (20 µM)", "fold change of Cadaverine concentration": 0.992}
{"MOLECULE": "C[C@@]12CC[C@@H]3[C@@](CC[C@H]4[C@@]3(C)CCC[C@@]4(C)C(=O)O)(CC1=O)C2 [Iso-Steviol] (50 µM)", "fold change of Cadaverine concentration": 1.02}
{"MOLECULE": "Cc1ccccc1N1C(=O)c2cc(S(N)(=O)=O)c(Cl)cc2NC1C (configuration not stated) [Metolazone] (20 µM)", "fold change of Cadaverine concentration": 0.993}
{"MOLECULE": "CC(=O)OCC(=O)[C@@]12N=C(C)O[C@@H]1C[C@H]1[C@@H]3CCC4=CC(=O)C=C[C@]4(C)[C@H]3[C@@H](O)C[C@@]12C [Deflazacort] (20 µM)", "fold change of Cadaverine concentration": 0.991}
{"MOLECULE": "Cc1noc(NS(=O)(=O)c2ccc(N)cc2)c1C [Sulfisoxazole] (20 µM)", "fold change of Cadaverine concentration": 1.01}
{"MOLECULE": "CN1CC(O)c2cc(N=NC(N)=O)c(O)cc21 (configuration not stated) [Carbazochrome] (20 µM)", "fold change of Cadaverine concentration": 1.07}
{"MOLECULE": "CN(CCOc1ccc(CC2SC(=O)NC2=O)cc1)c1ccccn1 (configuration not stated) [Rosiglitazone hydrochloride] (20 µM)", "fold change of Cadaverine concentration": 1.03}

----------
Tested on: Klebsiella aerogenes DSM 30053
METHOD NOTES: growth (OD595) fold change vs plate DMSO controls (fold change (ratio)); higher = more growth
CONDITION: incubation time: 27 h, anaerobic, 37 °C
Where a name gives a salt, the structure may show the parent alone.
Given measured growth, output Condition met if it is greater than or equal to 1 and Condition not met if not.

{"COMPOUND": "CCCC1C(=O)N2C(N(C)C)=Nc3ccc(C)cc3N2C1=O (stereo not drawn) [Azapropazone] (20 µM)", "GROUP LABEL": "Condition not met"}
{"COMPOUND": "CCCCCCCCNC(C)C(O)c1ccc(SC(C)C)cc1 (stereo not drawn) [Suloctidil] (20 µM)", "GROUP LABEL": "Condition met"}
{"COMPOUND": "COc1cccc2c1C(=O)c1c(O)c3c(c(O)c1C2=O)C[C@@](O)(C(=O)CO)C[C@@H]3O[C@H]1C[C@H](N)[C@@H](O)[C@H](C)O1 [Epirubicin hydrochloride] (20 µM)", "GROUP LABEL": "Condition not met"}

----------
System: Clostridium sporogenes DSM 1664
METHOD NOTES: fold change of Tryptamine concentration vs plate DMSO controls (fold change (ratio)); higher = more amine produced, active = hit call of the paper (significant change in both replicates, either direction);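 for the amine columns active = adjusted P below 0.05 in both replicates with a change the same way and a mean fold change under 0.8 or over 1.25; inactive = the rest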
CONDITION: incubation time: 27 h, anaerobic, 37 °C
Counter-ions that a name gives are not always drawn.
Outcome codes: T for active, F for inactive

{"COMPOUND": "CCCc1c2oc(C(=O)O)cc(=O)c2cc2c(=O)cc(C(=O)O)n(CC)c12 [Nedocromil sodium] (20 µM)", "MEASURED TARGET": "Clostridium sporogenes DSM 1664", "GROUP LABEL": "F"}
{"COMPOUND": "C[C@H]1C[C@H]2[C@@H]3CCC4=CC(=O)C=C[C@]4(C)[C@@]3(F)[C@@H](O)C[C@]2(C)[C@@]1(O)C(=O)CO [Betamethasone] (20 µM)", "MEASURED TARGET": "Clostridium sporogenes DSM 1664", "GROUP LABEL": "F"}
{"COMPOUND": "CCCNC(C)(C)COC(=O)c1ccccc1 [Meprylcaine hydrochloride] (20 µM)", "MEASURED TARGET": "Clostridium sporogenes DSM 1664", "GROUP LABEL": "F"}
{"COMPOUND": "O=[N+]([O-])c1ccc(O)c2ncccc12 [Nitroxoline] (20 µM)", "MEASURED TARGET": "Clostridium sporogenes DSM 1664", "GROUP LABEL": "F"}
{"COMPOUND": "Cc1onc(-c2ccccc2)c1-c1ccc(S(N)(=O)=O)cc1 [Valdecoxib] (20 µM)", "MEASURED TARGET": "Clostridium sporogenes DSM 1664", "GROUP LABEL": "F"}
{"COMPOUND": "CCCCN(CCCC)CCC(O)c1cc2c(Cl)cc(Cl)cc2c2cc(C(F)(F)F)ccc12 (stereo not drawn) [Halofantrine hydrochloride] (20 µM)", "MEASURED TARGET": "Clostridium sporogenes DSM 1664", "GROUP LABEL": "F"}
{"COMPOUND": "O=c1[nH]c(=O)n([C@H]2C[C@H](O)[C@@H](CO)O2)cc1I [Idoxuridine] (20 µM)", "MEASURED TARGET": "Clostridium sporogenes DSM 1664", "GROUP LABEL": "T"}
{"COMPOUND": "CCN(CC)CCNC(=O)COc1ccc(OC)cc1 [Mefexamide hydrochloride] (20 µM)", "MEASURED TARGET": "Clostridium sporogenes DSM 1664", "GROUP LABEL": "F"}

----------
Let's look at some molecules and their measured growth.
System: Clostridium sporogenes DSM 1664
METHOD NOTES: growth (OD595) fold change vs plate DMSO controls (fold change (ratio)); higher = more growth
CONDITION: incubation time: 27 h, anaerobic, 37 °C
Where a name gives a salt, the structure may show the parent alone.

{"MOLECULE": "Cc1cc(-n2c(=O)[nH]c(=O)n(C)c2=O)ccc1Oc1ccc(SC(F)(F)F)cc1 [Toltrazuril] (20 µM)", "growth": 1.1}
{"MOLECULE": "CCN(CC)CCNC(=O)COc1ccc(OC)cc1 [Mefexamide hydrochloride] (20 µM)", "growth": 0.963}
{"MOLECULE": "OC[C@H]1O[C@@](CO)(OC[C@@]2(OC[C@@]3(O[C@H]4O[C@H](CO)[C@@H](O)[C@H](O)[C@H]4O)O[C@H](CO)[C@@H](O)[C@@H]3O)O[C@H](CO)[C@@H](O)[C@@H]2O)[C@@H](O)[C@@H]1O [Nystose] (50 µM)", "growth": 1.05}

----------
Let's look at some compounds and their measured fold change of Cadaverine concentration.
System: Klebsiella aerogenes DSM 30053
METHOD NOTES: fold change of Cadaverine concentration vs plate DMSO controls (fold change (ratio)); higher = more amine produced, active = hit call of the paper (significant change in both replicates, either direction)
CONDITION: incubation time: 27 h, anaerobic, 37 °C
Structures can show the parent of a compound that is named as a salt.

{"COMPOUND": "CN(C)C/C=C(/c1ccc(Br)cc1)c1cccnc1 [Zimelidine dihydrochloride monohydrate] (20 µM)", "MEASURED TARGET": "Klebsiella aerogenes DSM 30053", "fold change of Cadaverine concentration": 0.978}
{"COMPOUND": "CC(C)(C)CC(C)(C)c1ccc(O)c(Cc2ccc(Cl)cc2Cl)c1 [Clofoctol] (20 µM)", "MEASURED TARGET": "Klebsiella aerogenes DSM 30053", "fold change of Cadaverine concentration": 1.01}
{"COMPOUND": "NC(=O)N/N=C/c1ccc([N+](=O)[O-])o1 [Nitrofural] (20 µM)", "MEASURED TARGET": "Klebsiella aerogenes DSM 30053", "fold change of Cadaverine concentration": 1.01}
{"COMPOUND": "c1ccc2c(c1)-c1cccc3c1c-2cc1ccccc13 [Benzo[b]fluoranthene] (20 µM)", "MEASURED TARGET": "Klebsiella aerogenes DSM 30053", "fold change of Cadaverine concentration": 1.01}

----------
Tested on: Klebsiella aerogenes DSM 30053
METHOD NOTES: fold change of Putrescine concentration vs plate DMSO controls (fold change (ratio)); higher = more amine produced, active = hit call of the paper (significant change in both replicates, either direction)
CONDITION: incubation time: 27 h, anaerobic, 37 °C
Where a name gives a salt, the structure may show the parent alone.
Given measured fold change of Putrescine concentration, output condition met if it is greater than or equal to 1 and condition not met if not.

{"COMPOUND": "CO/N=C(\\C(=O)N[C@@H]1C(=O)N2C(C(=O)O)=C(COC(N)=O)CS[C@H]12)c1ccco1 [Cefuroxime sodium salt] (20 µM)", "GROUP LABEL": "condition met"}
{"COMPOUND": "CC(C)(O/N=C(\\C(=O)N[C@@H]1C(=O)N2C(C(=O)[O-])=C(C[n+]3ccccc3)CS[C@H]12)c1csc(N)n1)C(=O)O [Ceftazidime pentahydrate] (20 µM)", "GROUP LABEL": "condition not met"}
{"COMPOUND": "Nc1nc(NC2CC2)c2ncn([C@H]3C=C[C@@H](CO)C3)c2n1 [Abacavir sulfate] (20 µM)", "GROUP LABEL": "condition met"}
